assay: Spectral properties of rhodamine bis-boronic acids and precursors in DMSO:buffer; assay type: physicochemical; settings: DMSO:buffer 1:9
Observable: Q.Y.

[[record]]
chemical_smiles = "O=C(O)c1ccccc1-c1c2ccc3cc(NCc4ccccc4B(O)O)ccc3c2oc2c1ccc1cc(=NCc3ccccc3B(O)O)ccc12"
readout_number = 0.004

[[record]]
chemical_smiles = "N=c1ccc2c(-c3ccccc3C(=O)O)c3ccc4cc(N)ccc4c3oc-2c1"
readout_number = 0.19


(A) O=C(O)c1ccccc1-c1c2ccc(=NCc3ccccc3B(O)O)cc-2oc2c1ccc1cc(NCc3ccccc3B(O)O)ccc12
(B) N=c1ccc2c(ccc3c(-c4ccccc4C(=O)O)c4ccc5cc(N)ccc5c4oc32)c1
# input Hi there! Just curious which has the higher Q.Y. between A and B . Give the chosen item's label as your response.
# output A

====

assay: Spectral properties of rhodamine bis-boronic acids and precursors in DMSO:buffer; assay type: physicochemical; details: DMSO:buffer 1:1
Observable: Em (nm)

[[record]]
compound = "N=c1ccc2c(-c3ccccc3C(=O)O)c3ccc4cc(N)ccc4c3oc-2c1 [Compound 50, seminaphthorhodamine]"
reading_unit = "nm"
readout_number = 630

[[record]]
compound = "N=c1ccc2c(ccc3c(-c4ccccc4C(=O)O)c4ccc5cc(N)ccc5c4oc32)c1 [Compound 52, naphthorhodamine]"
reading_unit = "nm"
readout_number = 676

[[record]]
compound = "Cl.N=c1ccc2c(-c3ccccc3C(=O)O)c3ccc(N)cc3oc-2c1 [Rhodamine 110]"
reading_unit = "nm"
readout_number = 526

[[record]]
compound = "O=C(O)c1ccccc1-c1c2ccc3cc(NCc4ccccc4B(O)O)ccc3c2oc2c1ccc1cc(=NCc3ccccc3B(O)O)ccc12 [Compound 53, naphthorhodamine bis-boronic acid]"
reading_unit = "nm"
readout_number = 700

[[record]]
compound = "O=C(O)c1ccccc1-c1c2ccc(=NCc3ccccc3B(O)O)cc-2oc2c1ccc1cc(NCc3ccccc3B(O)O)ccc12 [Compound 51, seminaphthorhodamine bis-boronic acid]"
reading_unit = "nm"
readout_number = 643


====

Test: UV-visible absorbance spectroscopy, 15 μM in 90% aqueous, 10% DMSO
Format: physicochemical
Conditions: pH 7.4, 90% aqueous 10% DMSO
Protocol: Compounds 21 and 7 were characterized by UV-visible spectroscopy (FIG. 15). Absorbance was measured using 15 μM solutions of each compound in a solution that was 90% aqueous, 10% DMSO. […] Compounds 22 and 8 were characterized by UV-visible spectroscopy (FIG. 16). Absorbance was measured using 15 μM solutions of each compound in a solution that was 90% aqueous, 10% DMSO. […] Absorbance was measured using 15 μM solutions of compound 15d in a solution that was 90% aqueous, 10% DMSO. […]
Observable: Absorbance peak (nm)

[[record]]
molecule = "COC(=O)c1ccccc1-c1c2ccc(=N)cc-2oc2c1ccc1cccc(N)c12 [Compound 15g]"
readout_number = 570

[[record]]
molecule = "COC(=O)c1ccccc1-c1c2ccc3cc(O)ccc3c2oc2c1ccc1cc(=O)ccc12 [Compound 22, naphthofluorescein methyl ester]"
readout_number = 605

[[record]]
molecule = "O=C1OC2(c3ccccc31)c1ccc3cc(O)ccc3c1Oc1c2ccc2cc(O)ccc12 [Compound 21, Naphthofluorescein, reference compound]"
readout_number = 590

[[record]]
molecule = "COC(=O)c1ccccc1-c1c2ccc(=N)cc-2oc2c1ccc1cc(N)ccc12 [Compound 20b]"
readout_number = 540


====

experiment: Spectral properties of rhodamine bis-boronic acids and precursors in DMSO:buffer; assay type: physicochemical; conditions: DMSO:buffer 1:9
Observable: Em (nm)

[[record]]
chemical_smiles = "N=c1ccc2c(ccc3c(-c4ccccc4C(=O)O)c4ccc5cc(N)ccc5c4oc32)c1"
reading_unit = "nm"
readout_number = 668

[[record]]
chemical_smiles = "O=C(O)c1ccccc1-c1c2ccc(=NCc3ccccc3B(O)O)cc-2oc2c1ccc1cc(NCc3ccccc3B(O)O)ccc12"
reading_unit = "nm"
readout_number = 638

[[record]]
chemical_smiles = "N=c1ccc2c(-c3ccccc3C(=O)O)c3ccc4cc(N)ccc4c3oc-2c1"
reading_unit = "nm"
readout_number = 628

[[record]]
chemical_smiles = "O=C(O)c1ccccc1-c1c2ccc3cc(NCc4ccccc4B(O)O)ccc3c2oc2c1ccc1cc(=NCc3ccccc3B(O)O)ccc12"
reading_unit = "nm"
readout_number = 692


====

assay: Absorbance and fluorescence in methanol; assay type: physicochemical
Observable: Emission maximum (nm)

[[record]]
compound = "COC(=O)c1ccccc1-c1c2ccc3cccc(O)c3c2oc2c1ccc1cccc(=O)c12 [Compound 8]"
readout_number = 816

[[record]]
compound = "COC(=O)c1ccccc1-c1c2ccc(=O)cc-2oc2c1ccc1cccc(O)c12 [Compound 15a]"
readout_number = 582

[[record]]
compound = "COC(=O)c1ccccc1-c1c2ccc(=O)cc-2oc2c1ccc1cc(O)ccc12 [Compound 20a]"
readout_number = 550

[[record]]
compound = "COC(=O)c1ccccc1-c1c2ccc3cc(O)ccc3c2oc2c1ccc1cc(=O)ccc12 [Compound 22, naphthofluorescein methyl ester]"
readout_number = 688


====

assay: Spectral properties of rhodamine bis-boronic acids and precursors in DMSO:buffer; assay type: physicochemical; conditions: DMSO:buffer 1:1, pH 7.4 phosphate buffer 12.5 mM
Observable: Abs (nm)

[[record]]
chemical_smiles = "O=C(O)c1ccccc1-c1c2ccc(=NCc3ccccc3B(O)O)cc-2oc2c1ccc1cc(NCc3ccccc3B(O)O)ccc12"
readout_number = 579

[[record]]
chemical_smiles = "N=c1ccc2c(-c3ccccc3C(=O)O)c3ccc4cc(N)ccc4c3oc-2c1"
readout_number = 542

[[record]]
chemical_smiles = "O=C(O)c1ccccc1-c1c2ccc3cc(NCc4ccccc4B(O)O)ccc3c2oc2c1ccc1cc(=NCc3ccccc3B(O)O)ccc12"
readout_number = 616

[[record]]
chemical_smiles = "N=c1ccc2c(ccc3c(-c4ccccc4C(=O)O)c4ccc5cc(N)ccc5c4oc32)c1"
readout_number = 602

[[record]]
chemical_smiles = "Cl.N=c1ccc2c(-c3ccccc3C(=O)O)c3ccc(N)cc3oc-2c1"
readout_number = 503


====

assay: Spectral properties of rhodamine bis-boronic acids and precursors in DMSO:buffer; assay type: physicochemical; conditions: DMSO:buffer 1:9
Observable: ε (M⁻¹ cm⁻¹)

[[record]]
chemical_smiles = "O=C(O)c1ccccc1-c1c2ccc3cc(NCc4ccccc4B(O)O)ccc3c2oc2c1ccc1cc(=NCc3ccccc3B(O)O)ccc12"
readout_number = 10759

[[record]]
chemical_smiles = "N=c1ccc2c(ccc3c(-c4ccccc4C(=O)O)c4ccc5cc(N)ccc5c4oc32)c1"
readout_number = 11994


(a) N=c1ccc2c(-c3ccccc3C(=O)O)c3ccc4cc(N)ccc4c3oc-2c1
(b) O=C(O)c1ccccc1-c1c2ccc(=NCc3ccccc3B(O)O)cc-2oc2c1ccc1cc(NCc3ccccc3B(O)O)ccc12
# input Hi there! Just curious which has the higher ε between a and b . Give the chosen item's label as your response.
# output a
(a: 42701 M⁻¹ cm⁻¹, b: 20326 M⁻¹ cm⁻¹)

====

Assay: Spectral properties of rhodamine bis-boronic acids and precursors in DMSO:buffer
Format: physicochemical
Settings: DMSO:buffer 1:9
Experimental: Characterization: The spectral properties of compounds 50-53 were determined. Absorption and fluorescence spectra of solutions of the rhodamine bis-boronic acids 51 and 53, and their respective precursors 50 and 52, are shown in FIGS. 27A-C (in DMSO:buffer 1:9) and 27D-F (DMSO:buffer 1:1). […] Excitation and emission spectra were normalized to their absorbance at the excitation wavelength, and are proportional to quantum yield.
Observable: Ex (nm)

[[record]]
chemical_smiles = "O=C(O)c1ccccc1-c1c2ccc3cc(NCc4ccccc4B(O)O)ccc3c2oc2c1ccc1cc(=NCc3ccccc3B(O)O)ccc12"
observable = "Ex"
readout_number = 612

[[record]]
chemical_smiles = "N=c1ccc2c(-c3ccccc3C(=O)O)c3ccc4cc(N)ccc4c3oc-2c1"
observable = "Ex"
readout_number = 534

[[record]]
chemical_smiles = "O=C(O)c1ccccc1-c1c2ccc(=NCc3ccccc3B(O)O)cc-2oc2c1ccc1cc(NCc3ccccc3B(O)O)ccc12"
observable = "Ex"
readout_number = 568

[[record]]
chemical_smiles = "N=c1ccc2c(ccc3c(-c4ccccc4C(=O)O)c4ccc5cc(N)ccc5c4oc32)c1"
observable = "Ex"
readout_number = 584


====

experiment: Spectral properties of rhodamine bis-boronic acids and precursors in DMSO:buffer; type: physicochemical; conditions: DMSO:buffer 1:9, pH 7.4 phosphate buffer 12.5 mM
Observable: Abs (nm)

[[record]]
chemical_smiles = "O=C(O)c1ccccc1-c1c2ccc(=NCc3ccccc3B(O)O)cc-2oc2c1ccc1cc(NCc3ccccc3B(O)O)ccc12"
observable = "Abs"
readout_number = 560

[[record]]
chemical_smiles = "N=c1ccc2c(-c3ccccc3C(=O)O)c3ccc4cc(N)ccc4c3oc-2c1"
observable = "Abs"
readout_number = 535

[[record]]
chemical_smiles = "O=C(O)c1ccccc1-c1c2ccc3cc(NCc4ccccc4B(O)O)ccc3c2oc2c1ccc1cc(=NCc3ccccc3B(O)O)ccc12"
observable = "Abs"
readout_number = 628

[[record]]
chemical_smiles = "N=c1ccc2c(ccc3c(-c4ccccc4C(=O)O)c4ccc5cc(N)ccc5c4oc32)c1"
observable = "Abs"
readout_number = 578

